- Test system: heart rate response to isoproterenol (β-receptor mediated tachycardia)
- test name: Duration of β-blockade in vivo in anesthetized dogs, 40-minute infusion
- Design: species or system dog
- condition parameters: Canis lupus familiaris, iv, 40 min; read-out: Potency (mg/kg/40 min)
Item-by-item account of log10 ED50
assay readout: log10 ED50 (log10 of the value in mg/kg)

compound | experimental system | log10 ED50
CCOC(=O)CCNCC(O)COc1ccccc1 (centres unmarked) | heart rate response to isoproterenol (β-receptor mediated tachycardia) | 1.10
CCOC(=O)CCCNCC(O)COc1ccccc1C (centres unmarked) | heart rate response to isoproterenol (β-receptor mediated tachycardia) | 0.49
CCOC(=O)CCNCC(O)COc1ccc(OC)cc1 (centres unmarked) | heart rate response to isoproterenol (β-receptor mediated tachycardia) | 1.24
CCOC(=O)CCNCC(O)COc1ccccc1C (centres unmarked) | heart rate response to isoproterenol (β-receptor mediated tachycardia) | 0.00
CCOC(=O)CCCCNCC(O)COc1ccccc1C (centres unmarked) | heart rate response to isoproterenol (β-receptor mediated tachycardia) | 0.83

###

- test name: Disappearance in vitro in human whole blood
- Assay type: in vitro ADME
- condition parameters: 50 μg in 1 mL added to 1 mL human whole blood, 37° C.; read-out: T1/2 Human Whole Blood
assay readout: half-life (h)

compound | assay readout | unit | relation sign | experimental result
COC(=O)CCNCC(O)COc1ccccc1C (centres unmarked) | half-life | h | = | 2.47
CCOC(=O)CCNCC(O)COc1cccc(Cl)c1 (centres unmarked) | half-life | h | = | 1.97
CCOC(=O)c1ccc(CNCC(O)COc2ccccc2C)cc1 (centres unmarked) | half-life | h | > | 3
CCOC(=O)CCCCNCC(O)COc1ccccc1C (centres unmarked) | half-life | h | = | 1.55
CCOC(=O)CCNCC(O)COc1ccc(OC)cc1 (centres unmarked) | half-life | h | = | 2.63
CCOC(=O)CCNCC(O)COc1ccccc1Cl (centres unmarked) | half-life | h | = | 2.12
CCOC(=O)CCNCC(O)COc1ccccc1C (centres unmarked) | half-life | h | = | 2.58
CCOC(=O)CCCNCC(O)COc1ccccc1C (centres unmarked) | half-life | h | = | 1.95

###

We begin with a simple list: items and their reported pA2 Trachea.
- experimental system: UniProt Q8K4Z4
- Sequence (Q8K4Z4 whole entry): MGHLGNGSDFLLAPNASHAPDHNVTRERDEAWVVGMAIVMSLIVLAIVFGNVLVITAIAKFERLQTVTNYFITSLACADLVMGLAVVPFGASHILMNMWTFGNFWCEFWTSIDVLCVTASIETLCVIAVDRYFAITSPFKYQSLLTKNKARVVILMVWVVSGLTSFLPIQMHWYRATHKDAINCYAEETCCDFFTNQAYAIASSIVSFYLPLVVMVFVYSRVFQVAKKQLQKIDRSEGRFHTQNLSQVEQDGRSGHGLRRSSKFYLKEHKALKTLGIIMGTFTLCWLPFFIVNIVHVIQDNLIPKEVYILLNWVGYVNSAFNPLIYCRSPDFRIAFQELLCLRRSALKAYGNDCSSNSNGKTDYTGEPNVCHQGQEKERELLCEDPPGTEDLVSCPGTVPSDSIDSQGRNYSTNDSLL
- test name: cell-based
- Format: cell-based
- condition parameters: guinea pig trachea, carbachol tension, isoproterenol, 60 minute incubation, pA2 = -log KB
Structures can show the parent of a compound that is named as a salt.

compound | pA2 Trachea
CCOC(=O)CCNCC(O)COc1cccc(C)c1 (stereo not shown) | 6.5
COc1ccc(CCOC(=O)CCNCC(O)COc2ccccc2C)cc1OC (stereo not shown) | 6.6
CCOC(=O)CNCC(O)COc1ccccc1C (stereo not shown) | 6.2
COC(=O)CCNCC(O)COc1ccccc1C (stereo not shown) | 7.0
CCOC(=O)CCNCC(O)COc1cccc(Cl)c1 (stereo not shown) | 6.7
CCOC(=O)CCNCC(O)COc1cccc(OC)c1 (stereo not shown) | 6.7
CCOC(=O)CCNCC(O)COc1ccccc1C (stereo not shown) | 7.4
CCOC(=O)CCCCNCC(O)COc1ccccc1C (stereo not shown) | 7.4
CCOC(=O)CCCNCC(O)COc1ccccc1C (stereo not shown) | 6.7
CCOC(=O)CCNCC(O)COc1ccccc1Cl (stereo not shown) | 6.6
CCOC(=O)CCCNCC(O)COc1ccccc1 (stereo not shown) | 6.0
CCOC(=O)CNCC(O)COc1ccccc1 (stereo not shown) | 5.6
CCOC(=O)CCNCC(O)COc1ccccc1C(=O)OC (stereo not shown) [VIII, Hemihydrate] | 6.6
CCOC(=O)CCNCC(O)COc1ccc(Cl)cc1 (stereo not shown) [Example VI, Hydrochloride] | 5.6
CCOC(=O)CCNCC(O)COc1ccccc1 (stereo not shown) | 5.9

###

Recorded half-life by entry
- test name: Disappearance in vitro in dog liver homogenate
- Format: in vitro ADME
- condition parameters: 50 μg in 1 mL added to 1 mL of 33% (w/v) dog liver homogenate, 37° C.; read-out: T1/2 Dog Liver Homogenate
- Procedure: The rate of disappearance of a compound is expressed as the half-life (T1/2), which is the time period in which one-half of the initial amount of compound tested disappears. In each experiment, 1 mL of a solution containing 50 μg of the test compound was added to 1 mL of whole blood or 1 mL of a 33% (w/v) liver homogenate. […] The half life of each test compound was determined graphically by plotting the decrease in concentration as a function of time.
assay readout: half-life

molecule | experimental result
CCOC(=O)CCCCNCC(O)COc1ccccc1C (stereo not shown) | 8.8 min
CCOC(=O)CCNCC(O)COc1ccccc1Cl (stereo not shown) | 4 min
CCOC(=O)CCNCC(O)COc1cccc(Cl)c1 (stereo not shown) | 3 min
CCOC(=O)c1ccc(CNCC(O)COc2ccccc2C)cc1 (stereo not shown) | 9 min
COC(=O)CCNCC(O)COc1ccccc1C (stereo not shown) | 9 min
CCOC(=O)CCNCC(O)COc1ccccc1C (stereo not shown) | 3 min
CCOC(=O)CCNCC(O)COc1ccc(OC)cc1 (stereo not shown) | 4 min

###

- test name: Disappearance in vitro in dog whole blood
- Assay type: in vitro ADME
- condition parameters: 50 μg in 1 mL added to 1 mL dog whole blood, 37° C.; read-out: T1/2 Dog Whole Blood

molecule | half-life
CCOC(=O)c1ccc(CNCC(O)COc2ccccc2C)cc1 (stereo not drawn) [XV] | > 3 h
CCOC(=O)CCNCC(O)COc1ccc(OC)cc1 (stereo not drawn) [XXV] | > 3 h
CCOC(=O)CCCNCC(O)COc1ccccc1C (stereo not drawn) [XI] | > 3 h
